method: Induction of nitric oxide release in phosphate buffer at 10^-4 M at pH 7.4 after 1 hr by Griess colorimetric method in presence of N-acetylcysteine
Type: physicochemical
run.conditions: pH 7.4, 1 h, 100 µM
For each entry below, report its Activity value.
Answers are plain numbers, in mol/mol.

Below: 2 compounds and their reported Activity.
C=CCn1c(SCC(=O)Nc2ccc(/C(C)=N/O)cc2)nnc1-c1ccc(OC)cc1 0.15
COc1ccc(-c2nnc(SCC(=O)Nc3ccc(/C(C)=N/O)cc3)n2-c2ccccc2)cc1 0.13

Data point: "CCn1c(SCC(=O)Nc2ccc(/C(C)=N/O)cc2)nnc1-c1ccc(OC)cc1" ; Activity = 0.16

Hey, just so you know, these numbers are from ChEMBL document CHEMBL3102806.
